- ASSAY_SYSTEM: Autotaxin (Homo sapiens, UniProt Q13822)
- Construct: from tissue; host or cells: pooled human plasma
- TEST_DESCRIPTION: LPA formation in pooled human plasma (ex vivo autotaxin inhibition)
- Type: biochemical
- MEASUREMENT_SETUP: 2 hours incubation, LPA 18:2 by LC/MS/MS, read-out: LPA formation (18:2) (IC50)
pIC50: −log10 of the molar value.
PROPERTY_MEASURED: pIC50

# input Quote pIC50 reported for CCc1nn2cc(C)c(N3CC4(CN(C(=O)C(C)(C)O)C4)C3)cc2c1N(C)c1nc(-c2ccc(F)cc2)c(C#N)s1 [Example 98] please.
# output 6.30 to 7.00

# input Quote pIC50 reported for CCc1nn2ccc(N3CCN(CC(=O)N(C)C)CC3)cc2c1N(C)c1nc(-c2ccc(F)cc2)c(C#N)s1 [Example 5] please.
# output ≥ 7.00

# input Quote pIC50 reported for CCc1nn2c(C)cc(N3CCC4(CCN(C(=O)N5CC(O)C5)C4)CC3)cc2c1N(C)c1nc(-c2ccc(F)cc2)c(C#N)s1 [Example 37] please.
# output ≥ 7.00

# input Quote pIC50 reported for CCc1nn2ccc(N3CCN(CC(=O)N4CC[C@@H](O)C4)CC3)cc2c1N(C)c1nc(-c2ccc(F)cc2)c(C#N)s1 [Example 3] please.
# output ≥ 7.00

# input Quote pIC50 reported for CCc1nn2ccc(N3CC4(CC(C(=O)N5CC(O)C5)C4)C3)cc2c1N(C)c1nc(-c2ccc(F)cc2)c(C#N)s1 [Example 8] please.
# output 6.30 to 7.00

# input Quote pIC50 reported for CCc1nn2ccc(N3CC4(CN(C(=O)[C@@H]5CCOC5)C4)C3)cc2c1N(C)c1nc(-c2ccc(F)cc2)c(C#N)s1 [Example 9] please.
# output 6.30 to 7.00

# input Quote pIC50 reported for CCc1nn2c(C)cc(-c3cnn(C[C@@H](O)CO)c3)cc2c1N(C)c1nc(-c2ccc(F)cc2)c(C#N)s1 [Example 72] please.
# output < 6.00

# input Quote pIC50 reported for Cc1cc(N2CC(O)C2)cc2c(N(C)c3nc(-c4ccc(F)cc4)c(C#N)s3)c(C3CC3)nn12 [Example 87] please.
# output < 6.00

# input Quote pIC50 reported for CCc1nn2cc(C)c(N3CCN(CC(=O)N4CC(O)C4)CC3)cc2c1N(C)c1nc(-c2ccc(F)cc2)c(C#N)s1 [Example 96] please.
# output ≥ 7.00

# input Quote pIC50 reported for CCc1nn2c(C)cc(N3CCN(CC(=O)N4CC(O)C4)CC3)nc2c1N(C)c1nc(-c2ccc(F)cc2)c(C#N)s1 [Example 95] please.
# output < 6.00

# input Quote pIC50 reported for CCc1nn2ccc(N3CCN(CC(=O)N4CC[C@H](O)C4)CC3)cc2c1N(C)c1nc(-c2ccc(F)cc2)c(C#N)s1 [Example 2] please.
# output ≥ 7.00

# input Quote pIC50 reported for CCc1nn2ccc(N3CC4(CN(C(=O)[C@H]5CCOC5)C4)C3)cc2c1N(C)c1nc(-c2ccc(F)cc2)c(C#N)s1 [Example 10] please.
# output ≥ 7.00

# input Quote pIC50 reported for CCc1nn2c(C)cc(N3CC4(CN(C(=O)C(O)CO)C4)C3)cc2c1N(C)c1nc(-c2ccc(F)cc2)c(C#N)s1 (stereo not drawn) [Example 60] please.
# output ≥ 7.00

# input Quote pIC50 reported for CCc1nn2c(C)cc(N3CC4(CN(C(=O)OC5CCOC5)C4)C3)cc2c1N(C)c1nc(-c2ccc(F)cc2)c(C#N)s1 (stereo not drawn) [Example 34] please.
# output 6.30 to 7.00

# input Quote pIC50 reported for CCc1nn2c(C)cc(N3CC4(CN(C(=O)[C@H]5COC[C@@H]5O)C4)C3)cc2c1N(C)c1nc(-c2ccc(F)cc2)c(C#N)s1 (stereo in doubt) [Example 59] please.
# output 6.30 to 7.00

# input Quote pIC50 reported for CCc1nn2c(C)cc(N3CC4(CN(C(=O)C5(O)CC5)C4)C3)cc2c1N(C)c1nc(-c2ccc(F)cc2)c(C#N)s1 [Example 61] please.
# output 6.30 to 7.00

# input Quote pIC50 reported for Cc1cc(N2CCN(C[C@@H](O)CO)CC2)cc2c(N(C)c3nc(-c4ccc(F)cc4)c(C#N)s3)c(C3CC3)nn12 [Example 82] please.
# output 6.30 to 7.00

# input Quote pIC50 reported for CCc1nn2c(C)cc(N3CCC4(CN(C(=O)C5CCOCC5)C4)C3)cc2c1N(C)c1nc(-c2ccc(F)cc2)c(C#N)s1 [Example 43] please.
# output ≥ 7.00

# input Quote pIC50 reported for CCc1nn2c(C)cc(N3CC4(CN(C(=O)c5cnco5)C4)C3)cc2c1N(C)c1nc(-c2ccc(F)cc2)c(C#N)s1 [Example 57] please.
# output ≥ 7.00

# input Quote pIC50 reported for Cc1cc(N2CCN(C3COC3)CC2)cc2c(N(C)c3nc(-c4ccc(F)cc4)c(C#N)s3)c(C3CC3)nn12 [Example 94] please.
# output 6.30 to 7.00

# input Quote pIC50 reported for CCc1nn2cc(C)c(N3CC4(CN(C(=O)C(O)CO)C4)C3)cc2c1N(C)c1nc(-c2ccc(F)cc2)c(C#N)s1 (stereo not drawn) [Example 99] please.
# output ≥ 7.00

# input Quote pIC50 reported for CCc1nn2cc(F)c(N3CC4(CN(C(=O)N5CCOCC5)C4)C3)cc2c1N(C)c1nc(-c2ccc(F)cc2)c(C#N)s1 [Example 108] please.
# output ≥ 7.00

# input Quote pIC50 reported for CCc1nn2ccc(N3CC4(CN(C(=O)N5CCN(C)CC5)C4)C3)cc2c1N(C)c1nc(-c2ccc(F)cc2)c(C#N)s1 [Example 14] please.
# output ≥ 7.00

# input Quote pIC50 reported for CCc1nn2c(C)cc(N3CCN(CC(=O)N4CC[C@@H](O)C4)CC3)cc2c1N(C)c1nc(-c2ccc(F)cc2)c(C#N)s1 [Example 25] please.
# output ≥ 7.00

# input Quote pIC50 reported for CCc1nn2c(C)cc(N3CC4(CCN(C(=O)C5CN(C)C5)C4)C3)cc2c1N(C)c1nc(-c2ccc(F)cc2)c(C#N)s1 [Example 47] please.
# output ≥ 7.00

# input Quote pIC50 reported for CCc1nn2c(C)cc(N3CC4(C3)CN(c3ncco3)C4)cc2c1N(C)c1nc(-c2ccc(F)cc2)c(C#N)s1 [Example 35] please.
# output 6.30 to 7.00

# input Quote pIC50 reported for CCn1nc2ncc(N3CC4(CN(C(=O)[C@H]5CCOC5)C4)C3)cc2c1N(C)c1nc(-c2ccc(F)cc2)c(C#N)s1 [Compound 117] please.
# output ≥ 7.00

Data origin, for the record: patent US10711000B2
